test system: Saccharomyces cerevisiae; experiment: protein stability index of tFT-peptide fusion (C-terminal peptide) (PSI (0-1 scale)); higher = more stable (slower turnover); settings: genetic background: wild type; temperature: 30 C
Assign protein stability index to each entry below.
Enter the number alone.

Which protein stability index is reported with Saccharomyces cerevisiae for this entry: PFSTWLSSPSLP ?
0.774

Another sequence to look at: YGAGDLTKYFIV
0.106

Another sequence to look at: PLPPSHPPTGPP
0.661

Another sequence to look at: RDGLVPFCVVII
0.615

Another sequence to look at: SYSGLLEALTTL
0.737

Another sequence to look at: AGSALSSAYTLM
0.703

Another sequence to look at: FVGACCGGSVEG
0.721

Another sequence to look at: LHLPPPLPSTLP
0.671

Another sequence to look at: LPAPGRPSPCRL
0.809

Another sequence to look at: RMEPPLCIISPK
0.661

###

tested on: Saccharomyces cerevisiae; experiment: protein stability index of tFT-peptide fusion (C-terminal peptide) (PSI (0-1 scale)); higher = more stable (slower turnover); details: genetic background: wild type; temperature: 30 C
assay_endpoint: protein stability index
Enter the number alone.

Which protein stability index is reported with Saccharomyces cerevisiae for this entry: RASQRGVRGGGG ?
0.666

Another sequence to look at: GGGEGVVWVRLG
0.272

Another sequence to look at: PAGVPPAVCRDL
0.609

Another sequence to look at: SFLVPLTAHISP
0.673

Another sequence to look at: GFSDCGLYRVSC
0.713

Another sequence to look at: PPPLPAAHFSTP
0.663

Another sequence to look at: PLYFSVFSLLFL
0.473

Another sequence to look at: GVVVGCGYGLVG
0.665

Another sequence to look at: VVPDSGESSASG
0.654

Another sequence to look at: SVLALLWVGCWL
0.378

Another sequence to look at: FSALAPTPLLPL
0.706

Another sequence to look at: SASLPSPPFPSP
0.649

Another sequence to look at: VCGSGGGCWGGG
0.622

Another sequence to look at: GVAFGLLVWLLG
0.378

Another sequence to look at: APHPYPPTPPAP
0.725

Another sequence to look at: VTDTFKFYCERL
0.727

Another sequence to look at: GSVEGVLWSGVL
0.711

Another sequence to look at: VYFLDPSSPPWF
0.752

Another sequence to look at: VGLWFLCSLAFS
0.401

###

Assign protein stability index to each entry below.
tested on: Saccharomyces cerevisiae; experiment: protein stability index of tFT-peptide fusion (C-terminal peptide) (PSI (0-1 scale)); higher = more stable (slower turnover); conditions: genetic background: wild type; temperature: 30 C;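 further: PSI is a weighted mean of sequencing reads over stability bins, variants kept only with over 10 reads, mCherry proximal and sfGFP distal, peptide attached via GGGS linker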
Enter the number alone.

Which protein stability index is reported with Saccharomyces cerevisiae for this entry: TYVSKCRLYEPA ?
0.644

Another sequence to look at: DTGGGPQTSRWD
0.715

Another sequence to look at: PPRLVPPLPPPL
0.635

Another sequence to look at: GRGSGRCVVYWG
0.651

Another sequence to look at: PTFRLGGYYRKS
0.703

Another sequence to look at: PFAGRLWVTSSF
0.752

Another sequence to look at: HLLLGPRSPPSP
0.661

Another sequence to look at: SSPHRPTPSWPP
0.564

Another sequence to look at: VYRMYTLKRVKR
0.686

Another sequence to look at: FFLLLLRPPLVM
0.374

Another sequence to look at: VFFPCRLLPLLF
0.27

Another sequence to look at: ASCAPGDVTQVG
0.718

Another sequence to look at: LRVYCVIPLSGM
0.526

Another sequence to look at: VFAVGRPGRGVV
0.648

Another sequence to look at: RPRVAGLMTLVS
0.5

Another sequence to look at: KKRKKKKQTKRK
0.691

Another sequence to look at: VRRGAVWCCLCG
0.474

Another sequence to look at: DRLPRHLPSLLP
0.715

Another sequence to look at: RCAGWSVDVGEG
0.623

Another sequence to look at: IPRRSSIPDKTP
0.718

Another sequence to look at: PVSVCADRPPAP
0.715

Another sequence to look at: VFRECSFFLVCC
0.333

Another sequence to look at: VPSPLPLPPLAP
0.722

Another sequence to look at: SIDGFAFCVGGV
0.737

Another sequence to look at: PSFHASSLSWFS
0.745

Another sequence to look at: KKKKKTKKKAEK
0.701

Another sequence to look at: PLTTIPSPNSLE
0.666

Another sequence to look at: GSGKHVGYIRVK
0.656

Another sequence to look at: GRNIIARLNNMT
0.575

Another sequence to look at: LWGVGRQRNIAS
0.41

Another sequence to look at: PPPPPPPPPVLP
0.675

Another sequence to look at: SLQAYASALIHV
0.687

Another sequence to look at: GGWSIVQKRRGG
0.722

Another sequence to look at: LPAICFWCVLVG
0.201

Another sequence to look at: PPLLPPPSPPPP
0.684

Another sequence to look at: GTGMHEGEPGEV
0.686

Another sequence to look at: GLGWLLFVVERV
0.453

Another sequence to look at: KRRRWFILSGPL
0.685

Another sequence to look at: EDSKLVSRLSRS
0.712

Another sequence to look at: PELLGVARDGFR
0.65

Another sequence to look at: YCGCLGYATGRV
0.671

Another sequence to look at: LCWRLCRFWWVG
0.363

Another sequence to look at: APPPPLLPHPTP
0.736

Another sequence to look at: RTKNMRRIKEKG
0.688

Another sequence to look at: SWVSSGTVILQE
0.74

Another sequence to look at: WGGGGGGSGACL
0.697

Another sequence to look at: PSPLPVSAPLLP
0.701

Another sequence to look at: CTISHSGHSGST
0.706

Another sequence to look at: LSVQVLSLRPRA
0.688

Another sequence to look at: GMIGLAEVGIKC
0.573

Another sequence to look at: RRHLSLCLLPSL
0.685

Another sequence to look at: RYVVVGACIQVV
0.37

Another sequence to look at: GQGEPRRVWGVV
0.675

Another sequence to look at: LACLPPLLLFSL
0.539

Another sequence to look at: LIIVFGFTSILR
0.419

Another sequence to look at: KYISKKKKEKKK
0.684

Another sequence to look at: PPHPTPRTLPSP
0.691

Another sequence to look at: LPPSPPTVPSPP
0.67

Another sequence to look at: KRIGLGEERQKR
0.57

Another sequence to look at: VTFFAFPLFFGF
0.602

Another sequence to look at: KMGTEEGRVWVG
0.651

Another sequence to look at: RGVGGAPVWPFV
0.765

Another sequence to look at: FRDVRFSSRVPF
0.786

Another sequence to look at: KTEEERKKAEKE
0.653

Another sequence to look at: KNKQSKNKSKRK
0.712

Another sequence to look at: FWVNFLFVLFIL
0.296

Another sequence to look at: RIVLGCSVVLRG
0.615

Another sequence to look at: HCRDCLVLIQFN
0.664

Another sequence to look at: QTPLPPSAISPP
0.712

Another sequence to look at: FIFCLSCGVWGG
0.414

Another sequence to look at: SGIEAGAELGVG
0.567

Another sequence to look at: GLMITSARYVGF
0.641

Another sequence to look at: CGRGVWAVVGVP
0.715

Another sequence to look at: GTRWPLVAPRER
0.725

Another sequence to look at: LPAPPPHPLSPV
0.716

Another sequence to look at: VREMGSPGLYRP
0.713

Another sequence to look at: VWGERPRFGGWG
0.691

Another sequence to look at: CLIGHFFSVIFY
0.524

Another sequence to look at: FFMPRCCSLALE
0.644

Another sequence to look at: TEFFVFNRTQSL
0.671

Another sequence to look at: GKHIAEMGNRKN
0.716

Another sequence to look at: SHLFPCRSSFPP
0.656
